measurement_protocol: In vitro rat microsomal stability assay
Format: in vitro ADME, rat (Sprague-Dawley)
protocol_conditions: Sprague-Dawley, rat, microsomes, 0.5 h, 0.5 μM, pH 7.4
observable: RAT MICROSOMAL STABILITY (% REMAINING AFTER 30 MINUTES) (%)
Write down the numeric answer in % and omit the unit.

// worked examples, RAT MICROSOMAL STABILITY (% REMAINING AFTER 30 MINUTES) included
1. OC1CC(c2ccc(F)c(Cl)c2)([C@H](O)c2ccccn2)C1 (some centres unmarked)	73
2. OC(c1ccccn1)C1(C2=CCCOC2)CCC1 (single isomer, unassigned)	12
3. O[C@H](c1ncccn1)C1(c2ccc(Cl)c(Cl)c2)CCC1	11
4. O[C@H](c1ccccn1)[C@]1(c2cccc(C(F)(F)F)c2)C[C@H](O)C1	73

Request: Item under review: CC(c1ccc(Cl)cc1)C1(C(O)c2ccccn2)CCC1 (centres unmarked) . Reported RAT MICROSOMAL STABILITY (% REMAINING AFTER 30 MINUTES)?
Response: 0.13

Request: I would be grateful if you could share the reported RAT MICROSOMAL STABILITY (% REMAINING AFTER 30 MINUTES) for CC1(O)CC(c2ccc(OC(F)(F)F)cc2)(C(O)c2ccccn2)C1 (single isomer, unassigned) [Example 134] .
Response: 72

Request: Entry under review: N[C@@H]1CCC[C@@H]1[C@@H](O)C1(c2ccc(Cl)c(Cl)c2)CCC1 . Reported RAT MICROSOMAL STABILITY (% REMAINING AFTER 30 MINUTES)?
Response: 41

---

measurement_protocol: In vitro rat microsomal stability assay
Type: in vitro ADME, rat (Sprague-Dawley)
protocol_conditions: Sprague-Dawley, rat, microsomes, 0.5 h, 0.5 μM, pH 7.4
observable: RAT MICROSOMAL STABILITY (% REMAINING AFTER 30 MINUTES)

1) OC(C1CCc2cccnc21)C1(c2ccccc2OC(F)(F)F)CCC1 (stereo not drawn)	<0.01%
2) OC(c1ccccn1)C1(c2ccc(Cl)c(Cl)c2)CCCO1 (single isomer, unassigned) [Example 98]	0.020%
3) OC(c1ccccn1)C1(c2cccc(OC(F)(F)F)c2)CC2(C1)OCCO2 (stereo not drawn)	<0.01%
4) OC(C1CCc2cccnc21)C1(c2ccc(OC(F)(F)F)cc2)CCC1 (stereo not drawn) [Example 176]	<0.01%
5) O[C@@H](c1ccccn1)C1(c2cc(C(F)(F)F)ccn2)CC(F)(F)C1	8.8%

Request: Report RAT MICROSOMAL STABILITY (% REMAINING AFTER 30 MINUTES) for NC1CCCCC1C(O)C1(c2cccc(C(F)(F)F)c2)CCC1 (stereo not drawn) please.
Response: 3.9%

Request: Need RAT MICROSOMAL STABILITY (% REMAINING AFTER 30 MINUTES) of O=C1CC(c2ccc(C(F)(F)F)cc2)(C(O)c2ccccn2)C1 (stereo not drawn) , thanks.
Response: 60%

Request: What RAT MICROSOMAL STABILITY (% REMAINING AFTER 30 MINUTES) value was documented for this molecule, O=C1CC(c2ccc(C(F)(F)F)cc2)([C@@H](O)c2ccccn2)C1 (single isomer, unassigned) ?
Response: 77%

Request: If you can, please state the reported RAT MICROSOMAL STABILITY (% REMAINING AFTER 30 MINUTES) value of O[C@H](c1ccccn1)C1(c2ccc(C(F)(F)F)cc2)CC(F)(F)C1 .
Response: 78%

Request: Would you kindly share the measured RAT MICROSOMAL STABILITY (% REMAINING AFTER 30 MINUTES) for OC(C1CCc2cccnc21)C1(c2cccc(C(F)(F)F)c2)CCC1 (stereo not drawn) ?
Response: <0.01%

Request: # lookup: RAT MICROSOMAL STABILITY (% REMAINING AFTER 30 MINUTES) of OC(c1ccccn1)C1(c2nc3ccccc3s2)CCC1 (stereo not drawn)
Response: 0.14%
